# method-summary: Loss of UV absorber from high solids thermoset acrylic melamine clear coat, Xenon-Arc X180 cycle (Example 78)
# Assay type: physicochemical
# measurement-parameters: after 2521 hours of exposure
# From the text: Following the general procedure of Example 77, a number of additional benzotriazole test compounds are incorporated into a high solids thermoset acrylic melamine resin at such concentrations between 1.93 and 3% by weight to give equal molar concentrations of test benzotriazole in equal film thickness, and sufficient to give a starting absorbance of approximately 2.0 absorbance units. The test discs are exposed in a Xenon-Arc Weather-Ometer at X180 cycle (0.45 Watts/M^2). […]
Each entry below carries its reported Units Absorbance Loss.

[
  {
    "query-smiles": "CC(C)(c1ccccc1)c1cc(-c2ccccc2)c(O)c(-n2nc3ccccc3n2)c1",
    "Units Absorbance Loss": 0.4824
  },
  {
    "query-smiles": "CC(C)(C)CC(C)(C)c1cc(-n2nc3ccccc3n2)c(O)c(C(C)(C)c2ccccc2)c1",
    "Units Absorbance Loss": 0.4054
  },
  {
    "query-smiles": "CC(C)(C)CC(C)(C)c1cc(-n2nc3ccc(C(F)(F)F)cc3n2)c(O)c(C(C)(C)c2ccccc2)c1",
    "Units Absorbance Loss": 0.2192
  },
  {
    "query-smiles": "CC(C)(C)c1cc(-n2nc3ccc(S(=O)(=O)c4ccccc4)cc3n2)c(O)c(C(C)(C)C)c1",
    "Units Absorbance Loss": 0.3570
  }
]
